target: human CD47/SIRPα interaction (Homo sapiens, UniProt Q08722); construct: Human or mouse CD47-IgV-Domain-hIg fusion proteins (20 nM, Sino Biological, China); purchased Sino Biological (hIg fusion); ACROBiosystems (biotinylated human CD47); host or cells: SIRPα partner: CHO cells stably expressing human SIRPα; assay: Blocking assay, human CD47 protein binding to CHO cells expressing human SIRPα (flow cytometry); details: blockade of peptides to hCD47 relative to parent pep-20, Table S4
Where a SMILES comes first, the peptide text is derived from it. [ ]: non-standard residue; d: D form.
assay.endpoint: Blocking rate relative to pep-20 (%)
Give bare numbers, in %.

Report Blocking rate relative to pep-20 (%) from human CD47/SIRPα interaction (Homo sapiens, UniProt Q08722) testing of C[C@H](NC(=O)[C@H](CO)NC(=O)[C@H](Cc1c[nH]c2ccccc12)NC(=O)[C@@H](C)N)C(=O)N[C@H](C(=O)N[C@@H](Cc1c[nH]c2ccccc12)C(=O)N[C@@H](CO)C(=O)N[C@@H](CC(N)=O)C(=O)N[C@@H](Cc1ccc(O)cc1)C(=O)N[C@@H](Cc1c[nH]c2ccccc12)C(=O)N[C@@H](CCCNC(=N)N)C(=O)N[C@H](Cc1c[nH]cn1)C(=O)O)[C@@H](C)O [pep-20-D2] (H-[dA]WSATWSNYWR[dH]-OH) 83

###

Target: mouse CD47-IgV-Domain protein (Mus musculus)
Construct: Human or mouse CD47-IgV-Domain proteins were labeled with NT-647 dye
Sequence (Q61735 19-125 limits assumed): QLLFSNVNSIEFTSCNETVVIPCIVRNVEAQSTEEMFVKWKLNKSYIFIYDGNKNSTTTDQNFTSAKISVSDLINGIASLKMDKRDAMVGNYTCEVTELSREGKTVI
Experiment: MST binding assay to mouse CD47-IgV-Domain protein
Details: figure 1B, read-out: KD, pep-20/mCD47
Where no end group is shown, it is not given here.
assay.endpoint: pKd
One number for each entry, as −log10 of the molar value.

Please look at this sequence and report its pKd: AWSATWSNYWRH [pep-20] 5.44

###

test: Pharmacokinetic assay in vivo; settings: C57BL/6, mouse, plasma, iv, 40 mg/kg
Where a SMILES comes first, the peptide text is derived from it. [ ]: non-standard residue; d: D form.
assay.endpoint: Cmax (µg/mL)
Answers are plain numbers, in µg/mL.

Please look at this molecule and report its Cmax: C[C@H](NC(=O)[C@@H](CO)NC(=O)[C@@H](Cc1c[nH]c2ccccc12)NC(=O)[C@@H](C)N)C(=O)N[C@H](C(=O)N[C@@H](Cc1c[nH]c2ccccc12)C(=O)N[C@@H](CO)C(=O)N[C@@H](CC(N)=O)C(=O)N[C@@H](Cc1ccc(O)cc1)C(=O)N[C@H](Cc1c[nH]c2ccccc12)C(=O)N[C@H](CCCNC(=N)N)C(=O)N[C@H](Cc1c[nH]cn1)C(=O)O)[C@@H](C)O [pep-20-D12] (H-[dA][dW][dS]ATWSNY[dW][dR][dH]-OH) 54.5

###

molecular target: human CD47-IgV-Domain protein (Homo sapiens, UniProt Q08722); construct: Human or mouse CD47-IgV-Domain proteins were labeled with NT-647 dye; assay: MST binding assay to human CD47-IgV-Domain protein; conditions: preliminary binding assay, Table S1, NT-647 labeled hCD47, 50 mM Tris, 150 mM NaCl, 10 mM MgCl2, 0.05% Tween-20, 0.5% DMSO, pH 7.5, 25°C, read-out: KD
Sequence (Q08722 19-127 limits assumed): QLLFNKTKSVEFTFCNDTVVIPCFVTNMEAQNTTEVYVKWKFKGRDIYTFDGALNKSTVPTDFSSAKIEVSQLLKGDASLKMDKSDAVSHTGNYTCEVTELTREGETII
Where no end group is shown, it is not given here.
Lab note: cut-off is 5 µM. Strictly less in Kd is Y. Exactly 5 µM or more is N.

LYAGKLERISRG [pep-16] :: N

Decide: Kd of ASYTDWWRNRLQ [pep-18] strictly below 5 µM? N

Decide: Kd of KLLPSLPSVSRN [pep-14] strictly below 5 µM? N

Decide: Kd of GNKLTQLAASMM [pep-4] strictly below 5 µM? N

Decide: Kd of DRIPKIPGLPVL [pep-6] strictly below 5 µM? N

Decide: Kd of AWSATWSNYWRH [pep-20] strictly below 5 µM? Y

Decide: Kd of ASFSSYNRGYMY [pep-15] strictly below 5 µM? N

Decide: Kd of TDLRYKEHYLYL [pep-3] strictly below 5 µM? Y

Decide: Kd of VSPLELADNPMY [pep-10] strictly below 5 µM? N
